B1: Hairpin Ribozyme (parent)
chain: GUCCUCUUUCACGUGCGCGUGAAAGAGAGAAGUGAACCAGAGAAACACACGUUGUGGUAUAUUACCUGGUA

# Variants of: B1
# PROTOCOL_NOTES: self-cleavage, relative activity (ratio to wild type); higher = more cleavage; co-transcriptional
TEST_READOUT: self-cleavage
Numbers only.

Example results:
self-cleavage lookup needed for GUCCUCUUUCACGUGCGCGUGAAAGAGAGAAGUGAACCAGAGAAACACACUUUGUCGUAUAUUACCUGGUA [G51U G56C] , thanks.
0.201

# self-cleavage lookup, item GGCCUCUUUCACGUGCGCGUGAAAGAGAGAAGUGAACCAGAGAAACACACGUUGAGGUAUAUUACCUGGUA [U2G U55A]
0.195

Give self-cleavage for each of the items listed below.
1. GUCCUCUUUCAUGUGCGCGUGAAAGAGAGAAGUGAACCAGACAAACACACGUUGUGGUAUAUUACCUGGUA [C12U G42C]
2. GUCCUCUUUCACGUGCGCGUGAAAGAGAGAAGUGAACUAGAGAAACACACGUUGUGCUAUAUUACCUGGUA [C38U G57C]
3. GUCCUCUUUCACGUGCGCGUGAAACAGUGAAGUGAACCAGAGAAACACACGUUGUGGUAUAUUACCUGGUA [G25C A28U]
4. GUCCUCUUUCACGUGCGCGUGAAAGAGAGAAGUGAACCAGAGAAACACACAUUGUGGUAUGUUACCUGGUA [G51A A61G]
5. GUCCUCUUUCACGUGCGCGUGAGAGAGAGAAGUGAACCAGAGAAACACACGUUGUGUUAUAUUACCUGGUA [A23G G57U]
6. GUCCUCUUUCACGUGCGCGUGAAAGAGAGAAUUGAACCAGAGAAACACUCGUUGUGGUAUAUUACCUGGUA [G32U A49U]
7. GUCCUCUUUCACCUGCGCGUGAUAGAGAGAAGUGAACCAGAGAAACACACGUUGUGGUAUAUUACCUGGUA [G13C A23U]
8. GUCCUCUUUCACGUGCGCGUGAAAGAGAGAAGUGAACCAGUGAAACACACGUUGUGGUAUAUUACUUGGUA [A41U C66U]

[0.265, 0.182, 0.327, 0.269, 0.142, 0.0712, 0.491, 0.46]

List self-cleavage for every entry below, keeping the order given.
1. GUCCUCUUUCACGUGCGCGUGAAAGAGAGAAGUGAACCAGAGAAACACGCGUUGUGGUAUAUUACCUUGUA [A49G G68U]
2. GUCCUCUUUCACGUGCGCGUGAAAGCGAGAAGUGAACCUGAGAAACACACGUUGUGGUAUAUUACCUGGUA [A26C A39U]
3. GUCCUCUUUCACGUGCGCGUGAAAGAGAGAAUUGACCCAGAGAAACACACGUUGUGGUAUAUUACCUGGUA [G32U A36C]
4. GACCUCUUUCACGUGCGCGUGAAAGCGAGAAGUGAACCAGAGAAACACACGUUGUGGUAUAUUACCUGGUA [U2A A26C]
5. GUCCUCUUUCACGUGCGCGUGAAAGAGAGAAGUGAACCAGAGAAACAGACGUUGUGGUAUAUUACCCGGUA [C48G U67C]
6. GUCCUCUUUAACGUGCGCGUGAAAGAGAGAAGUGAACCAGAGAAACACACGUUGUGGUAUAGUACCUGGUA [C10A U62G]
7. GUCCACUUUCACGUGCGCGUGAAAGAGAGAAGUGAACCAGAGAAACACAUGUUGUGGUAUAUUACCUGGUA [U5A C50U]
8. GUCCUCUUUCACGUGCGCGUAAAAGAGAGAAGUGAACCAGAGAAACUCACGUUGUGGUAUAUUACCUGGUA [G21A A47U]

0.215
0.303
0.1
0.311
0.117
0.162
0.291
0.162

I would be grateful if you could share the reported self-cleavage for GUCCUCUUUCACGUGCUCGUGAAAGAGAGAAGUGAACCAGAGAAACACACGUUGUGGUAUUUUACCUGGUA [G17U A61U] .
0.158
